Attribution: PubChem BioAssay (NCATS)

Potency values, listed per item
- experiment summary: Quantitative High-Throughput drug screen in 47 multiple myeloma cell lines against the NCATS MIPE library collection: Delta47_JCRB cell viability assay (AID 1918925; note: potency is the fitted concentration of half-maximal effect; nearly all actives have a fitted effect of over 45% in size)
- particulars: Delta47 myeloma viability, CellTiter-Glo ATP, 48 h; series mostly up to 45.8 µM
Results filed as inconclusive are left out. Calls of active or inactive are those of the source. Calls come from the whole dose curve; as a rule, active = well fitted cell-killing curve with a large enough effect; inconclusive = small, poorly fitted or top-dose-only effect, or effect the other way; inactive = no such curve, though single readings can be large or run the other way.
metric: Potency

{"columns": ["compound", "value measured"],
 "data": [
  ["NC1(Cc2ccc(Cl)cc2)CCN(c2ncnc3[nH]ccc23)CC1", "935 nM (active)"],
  ["Cc1cccc(C=NNc2cc(N3CCOCC3)nc(OCCc3ccccn3)n2)c1", "1320 nM (active)"],
  ["CCC[C@H](NC(=O)C(C#N)=Cc1cccc(Br)n1)c1ccccc1", "1320 nM (active)"],
  ["CC[C@H](CO)Nc1nc(NCc2ccccc2)c2ncn(C(C)C)c2n1", "16600 nM (active)"],
  ["COc1cc(=C2C=c3ccccc3=N2)[nH]c1=Cc1[nH]c(C)cc1C", "1870 nM (active)"],
  ["O=C(Cc1ccc(-c2ccc(OCCN3CCOCC3)cc2)cn1)NCc1ccccc1", "26.4 nM (active)"],
  ["COc1ccc(CC2c3cc(OC)c(OC)cc3CC[N+]2(C)CCC(=O)OCCCCCOC(=O)CC[N+]2(C)CCc3cc(OC)c(OC)cc3C2Cc2ccc(OC)c(OC)c2)cc1OC (stereo not given)", "3280 nM (active)"],
  ["COc1cc2c(cc1-c1c(C)noc1C)ncc1[nH]c(=O)n([C@H](C)c3ccccn3)c12", "418 nM (active)"],
  ["CC(C)C[C@H](NC(=O)CNC(=O)c1cc(Cl)ccc1Cl)B(O)O", "46.9 nM (active)"],
  ["C[C@]1(CO)CN(c2cc(C(=O)Nc3ccc4c(c3)-c3c(c(C(N)=O)nn3-c3ccc(F)cc3)CC4)c(Cl)cn2)C[C@@]1(C)CO", "9350 nM (active)"],
  ["COC(=O)Nc1nc2ccc(C(=O)c3ccc(F)cc3)cc2[nH]1", "418 nM (active)"],
  ["CC(C)CC(=O)Nc1n[nH]c2c1CN(C(=O)C1CCN(C)CC1)C2(C)C", "166 nM (active)"],
  ["CCNC(=O)Nc1ccc2ncc(Nc3ccc(C)cc3)nc2n1", "3320 nM (active)"],
  ["Nc1ncnc2c1c(-c1cccc(OCc3ccccc3)c1)cn2C1CC(CN2CCCC2)C1 (stereo not given)", "59 nM (active)"],
  ["c1nc2nc(Nc3ccc(N4CCOCC4)cc3)nc(NC3CCCCC3)c2[nH]1", "6620 nM (active)"],
  ["CC1(C)CC(=O)c2c(C(F)(F)F)nn(-c3ccc(C(N)=O)c(NC4CCC(OC(=O)CN)CC4)c3)c2C1 (stereo not given)", "166 nM (active)"],
  ["COc1ccc(C(=O)CC2(O)C(=O)Nc3c(Cl)ccc(Cl)c32)cc1 (stereo not given)", "3720 nM (active)"],
  ["Nc1nc(Nc2ccc(S(N)(=O)=O)cc2)nn1C(=O)c1c(F)cccc1F", "2640 nM (active)"],
  ["CCN(CC)CCCCNc1ncc2cc(-c3cc(OC)cc(OC)c3)c(NC(=O)NC(C)(C)C)nc2n1", "9350 nM (active)"],
  ["COc1cc2c(Nc3ccc(NC(=O)c4ccccc4)cc3)ncnc2cc1OCCCN1CCOCC1", "8330 nM (active)"]
]}
